Source: ChEMBL document CHEMBL1127355

species on record: Homo sapiens; assay: Concentration of test compound required to inhibit 50% LTB4-induced calcium mobilization in intact human PMNs; format: functional
Assay Endpoint: IC50 (nM)

- Molecule: "COc1ccc(CCCCCCCCOc2ccc(CS(=O)(=O)Cc3cccc(C(=O)O)c3)nc2/C=C/C(=O)O)cc1"
  Scale Unit: "nM"
  IC50: 920
- Molecule: "COc1ccc(CCCCCCCCOc2ccc(C[S+]([O-])Cc3cccc(C(=O)O)c3)nc2/C=C/C(=O)O)cc1 (centres undefined)"
  Scale Unit: "nM"
  IC50: 3300
- Molecule: "COc1ccc(CCCCCCCCOc2ccc(C[S+]([O-])c3cccc(C(=O)O)c3)nc2/C=C/C(=O)O)cc1 (centres undefined)"
  Scale Unit: "nM"
  IC50: 3900

a. COc1ccc(CCCCCCCCOc2ccc(CSCc3ccccc3C(=O)O)nc2/C=C/C(=O)O)cc1
b. COc1ccc(CCCCCCCCOc2ccc(CSCc3cccc(C(=O)O)c3)nc2/C=C/C(=O)O)cc1
Incoming: For the pair a and b , which entry has the numerically smaller recorded IC50? Please identify the chosen entry by its label.
Outgoing: b
(b: 131 nM, a: 710 nM)

====

molecular target: Leukotriene B4 receptor 1 (Homo sapiens, UniProt Q15722); assay: Binding affinity at leukotriene B4 receptor on intact human PMNs by displacement of [3H]LTB4.
Sequence (Q15722 whole entry): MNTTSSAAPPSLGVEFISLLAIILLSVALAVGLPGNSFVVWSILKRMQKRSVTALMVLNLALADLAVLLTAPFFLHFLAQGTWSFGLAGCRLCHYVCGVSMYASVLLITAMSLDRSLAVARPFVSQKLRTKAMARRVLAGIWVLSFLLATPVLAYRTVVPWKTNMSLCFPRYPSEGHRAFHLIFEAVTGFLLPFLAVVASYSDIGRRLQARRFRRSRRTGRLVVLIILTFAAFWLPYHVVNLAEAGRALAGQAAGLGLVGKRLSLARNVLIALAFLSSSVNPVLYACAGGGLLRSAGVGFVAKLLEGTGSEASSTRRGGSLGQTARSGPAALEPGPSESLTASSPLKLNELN
Assay Endpoint: Ki (nM)

a. O=C(O)/C=C/c1nc(CSCc2cccc(C(=O)O)c2)ccc1OCCCCCCCCc1ccccc1
b. CCCc1c(OCCCOc2ccc(C(=O)NC)c(OC)c2CC2CC2)ccc2c1O[C@H](CCC(=O)O)CC2
c. COc1ccc(CCCCCCCCOc2ccc(CSCc3ccccc3C(=O)O)nc2/C=C/C(=O)O)cc1
d. COc1ccc(CCCCCCCCOc2ccc(C[S+]([O-])c3cccc(C(=O)O)c3)nc2/C=C/C(=O)O)cc1 (centres undefined)
Incoming: // ascending sort on recorded Ki Provide your answer as the labels ordered per the instruction.
Outgoing: b, a, c, d
(b: 1.3 nM, a: 15.4 nM, c: 112 nM, d: 167 nM)

====

organism: Homo sapiens; experiment: Concentration of test compound required to inhibit 50% LTB4-induced calcium mobilization in intact human PMNs; format: functional
Assay Endpoint: IC50 (nM)

- Structure: "COc1ccc(CCCCCCCCOc2ccc(CSCc3cccc(C(=O)O)c3)nc2CCC(=O)O)cc1"
  IC50 [nM]: 240
- Structure: "COc1ccc(CCCCCCCCOc2ccc(CSc3cccc(C(=O)O)c3)nc2/C=C/C(=O)O)cc1"
  IC50 [nM]: 550

a. COc1ccc(CCCCOc2ccc(CSCc3cccc(C(=O)O)c3)nc2/C=C/C(=O)O)cc1
b. O=C(O)/C=C/c1nc(CSCc2cccc(C(=O)O)c2)ccc1OCCCCc1ccccc1
Incoming: Please state the entry with greater IC50 among a and b . Answer = label.
Outgoing: a
